# Target Of Assay: DOPAMINE D-2 (Rattus norvegicus)
# Sequence (P61169 whole entry): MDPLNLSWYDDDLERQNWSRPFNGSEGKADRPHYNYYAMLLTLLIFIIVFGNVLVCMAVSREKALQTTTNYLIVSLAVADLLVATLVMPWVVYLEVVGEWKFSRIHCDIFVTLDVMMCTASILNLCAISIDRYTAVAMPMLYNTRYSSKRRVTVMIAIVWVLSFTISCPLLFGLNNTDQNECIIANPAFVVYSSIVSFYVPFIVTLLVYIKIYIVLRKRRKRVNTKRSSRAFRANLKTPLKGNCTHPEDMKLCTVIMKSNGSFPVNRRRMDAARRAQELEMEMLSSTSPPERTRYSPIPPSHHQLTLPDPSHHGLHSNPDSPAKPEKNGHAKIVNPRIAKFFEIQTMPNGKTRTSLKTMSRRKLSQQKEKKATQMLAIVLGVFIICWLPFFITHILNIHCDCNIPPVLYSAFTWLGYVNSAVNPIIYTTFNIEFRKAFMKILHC
# Assay Remarks: Dopamine D-2 binding, rat brain, [3H]-(−)-sulpiride
# Setup Conditions: Table 2 of Example 9
Measurement Type: pKi
A value of pKi is the negative decimal logarithm of a concentration given in moles per litre.

**Query** Param item = O=C(NC1CCN(Cc2ccccc2)CC1)c1ccccc1I [2-IBP, (N-Benzylpiperidin-4-yl)-2-iodobenzamide] ; retrieve measured pKi.
**Result** 7.20

**Query** Using the record for O=C(NC1CCN(Cc2ccccc2)CC1)c1ccc(I)cc1 [4-IBP, (N-Benzylpiperidin-4-yl)-4-iodobenzamide] , report its pKi.
**Result** 6.42

**Query** Quick one: pKi for O=C(NC1CCN(Cc2ccccc2)CC1)c1cccc(I)c1 [3-IBP, (N-Benzylpiperidin-4-yl)-3-iodobenzamide] ?
**Result** 7.61

====

# Target Of Assay: Sigma-2 (Rattus norvegicus, UniProt Q5U3Y7)
# Sequence (Q5U3Y7 whole entry): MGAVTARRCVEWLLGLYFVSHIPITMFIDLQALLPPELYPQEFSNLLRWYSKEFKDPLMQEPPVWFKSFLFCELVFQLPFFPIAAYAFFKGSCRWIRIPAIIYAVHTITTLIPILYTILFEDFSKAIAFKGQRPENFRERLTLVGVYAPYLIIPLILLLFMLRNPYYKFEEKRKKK
# Assay Remarks: Sigma-2 binding assay, rat liver membranes, [3H]DTG + dextrallorphan (Example 8)
# Setup Conditions: read-out: Ki Sigma-2 Rat Liver; 3 nM [3H]DTG, 1 micromolar dextrallorphan
Measurement Type: Ki (nM)
The answer is to be given in nM; state only the numeric part.

**Query** State its Ki on Sigma-2 (Rattus norvegicus, UniProt Q5U3Y7): O=C(NCCN1CCCCC1)c1ccc(I)cc1 [IPAB, (2-Piperidinylaminoethyl)4-iodobenzamide]
**Result** 24

====

# Target Of Assay: Sigma-2 (Rattus norvegicus)
# Assay Remarks: Sigma-2 binding assay, rat liver membranes, [3H]DTG + dextrallorphan (Example 9)
Measurement Type: pKi
Reminder that pKi means the negative base-10 logarithm of the concentration expressed in mol/L.

**Query** Looking for the measured pKi of CN(CCc1ccc(I)cc1)CCN1CCCCC1 [4-IPEMP] , can you help?
**Result** 7.28

**Query** Given CN(CCc1ccc(Br)cc1)CCN1CCCCC1 [Br-PEMP] , state its recorded pKi.
**Result** 7.29

====

# Target Of Assay: MUSC (muscarinic receptors)
# Setup Conditions: read-out: Ki MUSC RAT BRAIN [3H]QNB
I'd be grateful if you could share measured Ki for these entries.

**Query** Please report the recorded Ki for O=C(NC1CCN(Cc2ccccc2)CC1)c1cccc(I)c1 [3-IBP, (N-Benzylpiperidin-4-yl)-3-iodobenzamide] .
**Result** > 100 µM

**Query** Item O=C(NC1CCN(Cc2ccccc2)CC1)c1ccccc1I [2-IBP, (N-Benzylpiperidin-4-yl)-2-iodobenzamide] has what recorded Ki?
**Result** > 100 µM

**Query** // lookup Ki for O=C(NC1CCN(Cc2ccccc2)CC1)c1ccc(I)cc1 [4-IBP, (N-Benzylpiperidin-4-yl)-4-iodobenzamide]
**Result** > 100 µM

====

# Target Of Assay: PCP
# Assay Remarks: PCP binding, rat brain, [3H]TCP
# Setup Conditions: Table 2 of Example 9
Measurement Type: Ki

**Query** Hi! What's the reported Ki for O=C(NC1CCN(Cc2ccccc2)CC1)c1cccc(I)c1 [3-IBP, (N-Benzylpiperidin-4-yl)-3-iodobenzamide] on PCP?
**Result** > 100 µM

**Query** Provide the documented Ki with PCP as the system for O=C(NC1CCN(Cc2ccccc2)CC1)c1ccc(I)cc1 [4-IBP, (N-Benzylpiperidin-4-yl)-4-iodobenzamide]
**Result** > 100 µM

**Query** Kindly state the measured Ki obtained for O=C(NC1CCN(Cc2ccccc2)CC1)c1ccccc1I [2-IBP, (N-Benzylpiperidin-4-yl)-2-iodobenzamide] with PCP.
**Result** > 100 µM

The measured values listed here are drawn from patent US6447748B1.
